System: RXF 393
Test: NCI tumour cell line growth inhibition, 48 h
Active and inactive are the calls of the source. Cut-off read from the data, not from the text of the source: active = GI50 up to about 1.1 µM and inactive = higher.
Measured parameter: GI50

Incoming: Please tell me: GI50 of c1ccc(CN[C@]23C4C5CC6C7C5C2C7[C@@](NCc2ccccc2)(C64)N3Cc2ccccc2)cc1 (stereo not given in full) , system RXF 393?
Outgoing: > 100 µM (inactive)

Incoming: Notebook entry, RXF 393 assay: GI50 of O=c1[nH]nc(Cc2ccccc2)n1/N=C/c1ccccc1Cl = ?
Outgoing: 3.56 µM (inactive)

Incoming: Please tell me: GI50 of CC(=O)Oc1c(C)cc2c(c1C)C(C)CN2C(C)=O (stereo not given) , system RXF 393?
Outgoing: > 100 µM (inactive)

Incoming: Entry CCOC(=O)c1sc2nc(SC)nc3c2c1NCN3C1CC1 , system RXF 393: what GI50 was measured?
Outgoing: > 100 µM (inactive)

Incoming: Kindly state the measured GI50 obtained for S=c1[nH]nc(COc2ccc3c(c2)CCCC3)n1/N=C/c1ccc(Cl)cc1 with RXF 393.
Outgoing: 14.4 µM (inactive)

Incoming: Which measured GI50 belongs to O=c1c(-c2ccccc2)c(SCCCN2CCN(c3cccc(Cl)c3)CC2)n(-c2ccccc2)c(=S)n1-c1ccccc1 , tested on RXF 393?
Outgoing: > 100 µM (inactive)
